So I've got a bunch of compounds here, and I need their DC50 values.
target: BTK-GFP (Homo sapiens, UniProt Q06187+Q96SW2); construct: expressed in transfected cells; host or cells: HEK293A (Invitrogen R70507), lentiviral transduction with pLenti6-BTK-GFP-Ires-RFP, blasticidin selection; test: BTK-GFP protein abundance flow cytometry assay in HEK293A cells; assay type: cell-based; settings: HEK293A BTK-GFP-iresRFP cells, 24 h, GFP signal by flow cytometry; concentration at which 50% maximal degradation was observed
Sequence (Q06187 whole entry): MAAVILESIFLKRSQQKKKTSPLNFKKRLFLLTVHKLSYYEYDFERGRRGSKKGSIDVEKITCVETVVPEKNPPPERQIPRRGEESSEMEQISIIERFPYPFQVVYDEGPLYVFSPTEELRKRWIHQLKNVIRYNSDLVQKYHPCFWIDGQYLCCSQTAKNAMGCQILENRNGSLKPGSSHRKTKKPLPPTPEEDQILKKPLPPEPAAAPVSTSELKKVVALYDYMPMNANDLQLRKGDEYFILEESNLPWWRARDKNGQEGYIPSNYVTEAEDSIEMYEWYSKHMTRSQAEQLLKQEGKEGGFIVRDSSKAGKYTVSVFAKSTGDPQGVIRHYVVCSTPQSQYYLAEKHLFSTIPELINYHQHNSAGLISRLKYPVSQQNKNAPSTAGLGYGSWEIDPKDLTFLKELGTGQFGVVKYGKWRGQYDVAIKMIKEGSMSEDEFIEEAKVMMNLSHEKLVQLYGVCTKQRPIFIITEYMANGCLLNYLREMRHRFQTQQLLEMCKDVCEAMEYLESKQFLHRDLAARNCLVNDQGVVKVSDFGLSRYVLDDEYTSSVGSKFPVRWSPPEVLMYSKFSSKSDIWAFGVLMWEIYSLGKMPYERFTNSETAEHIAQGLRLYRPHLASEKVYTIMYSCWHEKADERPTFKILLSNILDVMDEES
Sequence (Q96SW2 whole entry): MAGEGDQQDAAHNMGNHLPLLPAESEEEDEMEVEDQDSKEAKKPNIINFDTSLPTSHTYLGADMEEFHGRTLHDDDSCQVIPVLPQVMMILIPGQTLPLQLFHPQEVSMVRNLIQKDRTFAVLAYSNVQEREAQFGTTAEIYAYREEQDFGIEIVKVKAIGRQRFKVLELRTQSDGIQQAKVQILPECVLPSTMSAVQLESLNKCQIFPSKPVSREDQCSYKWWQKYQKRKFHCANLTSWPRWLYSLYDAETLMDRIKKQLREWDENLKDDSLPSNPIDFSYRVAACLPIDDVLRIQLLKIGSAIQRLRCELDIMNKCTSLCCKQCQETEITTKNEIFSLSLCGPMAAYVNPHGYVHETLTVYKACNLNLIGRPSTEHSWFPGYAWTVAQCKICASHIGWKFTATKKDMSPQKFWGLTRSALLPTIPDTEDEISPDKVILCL
Sequence (Q16531 whole entry partner): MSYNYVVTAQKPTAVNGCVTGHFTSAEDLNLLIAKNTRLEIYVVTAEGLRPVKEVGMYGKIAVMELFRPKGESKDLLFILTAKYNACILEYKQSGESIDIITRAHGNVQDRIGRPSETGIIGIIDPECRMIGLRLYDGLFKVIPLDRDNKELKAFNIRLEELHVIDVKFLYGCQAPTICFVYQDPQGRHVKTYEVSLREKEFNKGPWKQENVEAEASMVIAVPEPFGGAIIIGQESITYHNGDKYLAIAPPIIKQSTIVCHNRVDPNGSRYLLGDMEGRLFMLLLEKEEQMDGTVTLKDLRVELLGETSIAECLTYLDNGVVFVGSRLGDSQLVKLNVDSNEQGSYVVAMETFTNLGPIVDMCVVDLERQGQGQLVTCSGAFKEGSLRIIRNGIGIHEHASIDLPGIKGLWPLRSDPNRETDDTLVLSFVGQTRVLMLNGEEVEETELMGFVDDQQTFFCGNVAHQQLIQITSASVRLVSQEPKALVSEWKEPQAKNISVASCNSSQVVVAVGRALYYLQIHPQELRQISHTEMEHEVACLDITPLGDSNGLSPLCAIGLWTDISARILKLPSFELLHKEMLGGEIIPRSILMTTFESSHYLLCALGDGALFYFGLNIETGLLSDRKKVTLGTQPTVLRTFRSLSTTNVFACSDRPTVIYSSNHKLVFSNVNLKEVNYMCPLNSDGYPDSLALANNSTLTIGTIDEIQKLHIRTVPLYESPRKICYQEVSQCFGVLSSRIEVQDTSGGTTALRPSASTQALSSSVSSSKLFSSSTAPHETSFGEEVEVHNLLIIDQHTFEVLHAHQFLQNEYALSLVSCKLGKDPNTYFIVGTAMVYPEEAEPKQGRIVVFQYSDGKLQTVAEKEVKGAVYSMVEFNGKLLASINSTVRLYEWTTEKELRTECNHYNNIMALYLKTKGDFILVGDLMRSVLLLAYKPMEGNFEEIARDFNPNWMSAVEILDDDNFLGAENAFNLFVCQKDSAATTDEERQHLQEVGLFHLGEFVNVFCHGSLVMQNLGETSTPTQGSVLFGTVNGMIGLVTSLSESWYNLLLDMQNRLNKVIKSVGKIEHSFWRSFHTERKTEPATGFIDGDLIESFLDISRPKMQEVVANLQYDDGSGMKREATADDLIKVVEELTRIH
Respond with the bare value in nM.

# value lookup — system BTK-GFP (Homo sapiens, UniProt Q06187+Q96SW2), readout DC50, item COc1ccc(C(=O)NCCN2CCC3(CC2)CCN(Cc2ccc(-c4cc5c(-c6cc(F)cc(NC(=O)c7ccc(C(C)(C)O)cc7F)c6C)ncnc5[nH]4)cc2)CC3)cc1N1CCC(=O)NC1=O [Compound 44]
235

Please state recorded DC50 (tested on BTK-GFP (Homo sapiens, UniProt Q06187+Q96SW2)) of COc1ccc(C(=O)N2CCN(CCNCCCOCc3ccc(-c4cc5c(-c6cc(F)cc(NC(=O)c7ccc(C(C)(C)O)cc7F)c6C)ncnc5[nH]4)cc3)CC2)cc1N1CCC(=O)NC1=O [Compound 45]
284

# query: DC50 | item COc1ccc(C(=O)N2CCC(O[C@H]3CC[C@H](Oc4ccc(-c5cc6c(-c7cc(F)cc(NC(=O)c8ccc(C(C)(C)O)cc8F)c7C)ncnc6[nH]5)cc4)CC3)CC2)cc1N1CCC(=O)NC1=O [Compound 46] | system: BTK-GFP (Homo sapiens, UniProt Q06187+Q96SW2)
1.7

Request body: readout DC50, system BTK-GFP (Homo sapiens, UniProt Q06187+Q96SW2), query COc1ccc(C(=O)N2CCC(O[C@H]3CC[C@@H](Oc4ccc(-c5cc6c(-c7cc(F)cc(NC(=O)c8ccc(C(C)(C)O)cc8F)c7C)ncnc6[nH]5)cc4)CC3)CC2)cc1N1CCC(=O)NC1=O [Compound 54] . Return the value.
1.5

Lookup: DC50 / BTK-GFP (Homo sapiens, UniProt Q06187+Q96SW2) / Cc1c(NC(=O)c2ccc(C(C)(C)O)cc2F)cc(F)cc1-c1ncnc2[nH]c(-c3ccc(CCN4CCC5(CC4)CCN(C(=O)c4cccc(N6CCC(=O)NC6=O)c4)CC5)cc3)cc12 [Compound 12]
29.9

* * *

target: BTK-GFP (Homo sapiens, UniProt Q06187+Q96SW2); construct: expressed in transfected cells; host or cells: HEK293A (Invitrogen R70507), lentiviral transduction with pLenti6-BTK-GFP-Ires-RFP, blasticidin selection; test: BTK-GFP protein abundance flow cytometry assay in HEK293A cells; assay type: cell-based; settings: HEK293A BTK-GFP-iresRFP cells, 24 h; % protein remaining at the concentration at which maximum degradation is seen
assayReadout: BTK deg Amax

Item under review: `Cc1cc(F)c(C(=O)NCCCCCNCc2ccc(-c3cc4c(-c5cc(F)cc(NC(=O)c6ccc(C(C)(C)O)cc6F)c5C)ncnc4[nH]3)cc2)cc1N1CCC(=O)NC1=O` . Reported BTK deg Amax?
3.1%

Could you tell me which BTK deg Amax is on file for `COc1ccc(C(=O)N2CCC(O[C@H]3CC[C@H](Oc4ccc(-c5cc6c(-c7cc(F)cc(NC(=O)c8ccc(C(C)(C)O)cc8F)c7C)ncnc6[nH]5)cc4)CC3)CC2)cc1N1CCC(=O)NC1=O` ?
3.6%

Look up BTK deg Amax: `Cc1c(NC(=O)c2ccc(C(C)(C)O)cc2F)cc(F)cc1-c1ncnc2[nH]c(-c3ccc(COC4CCN(CCC5CCN(C(=O)c6ccc(F)c(N7CCC(=O)NC7=O)c6)CC5)CC4)cc3)cc12`
4.1%

Quick one: BTK deg Amax for `COc1ccc(C(=O)N2CCC(OC3CCN(Cc4ccc(-c5cc6c(-c7cc(F)cc(NC(=O)c8ccc(C(C)(C)O)cc8F)c7C)ncnc6[nH]5)cc4)CC3)CC2)cc1N1CCC(=O)NC1=O` ?
5.5%

Which BTK deg Amax is listed for `COc1ccc(C(=O)N2CCN(CCN3CCC(OCc4ccc(-c5cc6c(-c7cc(F)cc(NC(=O)c8ccc(C(C)(C)O)cc8F)c7C)ncnc6[nH]5)cc4)CC3)CC2)cc1N1CCC(=O)NC1=O` ?
3.7%

# query: BTK deg Amax of entry COc1ccc(C(=O)N2CCC3(CCN(Cc4ccc(-c5cc6c(-c7cc(F)cc(NC(=O)c8ccc(C(C)(C)O)cc8F)c7C)ncnc6[nH]5)cc4)C[C@H]3CO)CC2)cc1N1CCC(=O)NC1=O (single isomer, unassigned)
7.2%

Requested field: BTK deg Amax. Item: `COc1ccc(C(=O)N2CCC(CCN3CCC(OCc4ccc(-c5cc6c(-c7cc(F)cc(NC(=O)c8ccc(C(C)(C)O)cc8F)c7C)ncnc6[nH]5)cc4)CC3)CC2)cc1N1CCC(=O)NC1=O`
1.8%

Which BTK deg Amax is reported for this compound? `Cc1c(NC(=O)c2ccc(C(C)(C)O)cc2F)cc(F)cc1-c1ncnc2[nH]c(-c3ccc(CCN4CCC5(CC4)CCN(C(=O)c4ccc(F)c(N6CCC(=O)NC6=O)c4)CC5)cc3)cc12`
6.7%

What BTK deg Amax value was documented for this compound, `COc1ccc(C(=O)N2CCN(CCCCNCc3ccc(-c4cc5c(-c6cc(F)cc(NC(=O)c7ccc(C(C)(C)O)cc7F)c6C)ncnc5[nH]4)cc3)CC2)cc1N1CCC(=O)NC1=O` ?
4.6%

State the recorded BTK deg Amax for this entry: `Cc1c(NC(=O)c2ccc(C(C)(C)O)cc2F)cc(F)cc1-c1ncnc2[nH]c(-c3ccc(CN4CCC5(CC4)CN(CCCNC(=O)c4ccc(Cl)c(N6CCC(=O)NC6=O)c4)CCO5)cc3)cc12`
9.4%

I am curious: what BTK deg Amax value has been reported for `COc1ccc(C(=O)N2CCN(CCNCCCCOc3ccc(-c4cc5c(-c6cc(F)cc(NC(=O)c7ccc(C(C)(C)O)cc7F)c6C)ncnc5[nH]4)cc3)CC2)cc1N1CCC(=O)NC1=O` ?
2.4%

// returns reported BTK deg Amax for input `Cc1c(NC(=O)c2ccc(C(C)(C)O)cc2F)cc(F)cc1-c1ncnc2[nH]c(-c3ccc(CCN4CCC5(CC4)CCN(C(=O)c4cccc(N6CCC(=O)NC6=O)c4)CC5)cc3)cc12`
40.6%

Quick one: BTK deg Amax of `COc1ccc(C(=O)N2CCC3(CCN(Cc4ccc(-c5cc6c(-c7cc(F)cc(NC(=O)c8ccc(C(C)(C)O)cc8F)c7C)ncnc6[nH]5)cc4)CC3)C2)cc1N1CCC(=O)NC1=O` ?
53.8%

Returns the measured BTK deg Amax for the input compound. Input: COc1ccc(C(=O)N2CCC3(CCN(Cc4ccc(-c5cc6c(-c7cc(F)cc(NC(=O)c8ccc(C(C)(C)O)cc8F)c7C)ncnc6[nH]5)cc4)C[C@@H]3CO)CC2)cc1N1CCC(=O)NC1=O (single isomer, unassigned)
10.8%

Which BTK deg Amax value is on record for `COc1ccc(C(=O)N2CCN(CCN3CCN(Cc4ccc(-c5cc6c(-c7cc(F)cc(NC(=O)c8ccc(C(C)(C)O)cc8F)c7C)ncnc6[nH]5)cc4)CC3)CC2)cc1N1CCC(=O)NC1=O` ?
4.1%

Please report the recorded BTK deg Amax for COc1ccc(C(=O)N2CCC(OC(CO)CN3CCC(Oc4ccc(-c5cc6c(-c7cc(F)cc(NC(=O)c8ccc(C(C)(C)O)cc8F)c7C)ncnc6[nH]5)cc4)CC3)CC2)cc1N1CCC(=O)NC1=O (racemic) .
3.4%

Hey, just so you know, these numbers are from patent US12441733B2.
